Collected inhibition values appear next to each entry.
- assayed_system: Solute carrier family 2, facilitated glucose transporter member 1 (Homo sapiens) (UniProt P11166)
- Sequence (P11166 whole entry): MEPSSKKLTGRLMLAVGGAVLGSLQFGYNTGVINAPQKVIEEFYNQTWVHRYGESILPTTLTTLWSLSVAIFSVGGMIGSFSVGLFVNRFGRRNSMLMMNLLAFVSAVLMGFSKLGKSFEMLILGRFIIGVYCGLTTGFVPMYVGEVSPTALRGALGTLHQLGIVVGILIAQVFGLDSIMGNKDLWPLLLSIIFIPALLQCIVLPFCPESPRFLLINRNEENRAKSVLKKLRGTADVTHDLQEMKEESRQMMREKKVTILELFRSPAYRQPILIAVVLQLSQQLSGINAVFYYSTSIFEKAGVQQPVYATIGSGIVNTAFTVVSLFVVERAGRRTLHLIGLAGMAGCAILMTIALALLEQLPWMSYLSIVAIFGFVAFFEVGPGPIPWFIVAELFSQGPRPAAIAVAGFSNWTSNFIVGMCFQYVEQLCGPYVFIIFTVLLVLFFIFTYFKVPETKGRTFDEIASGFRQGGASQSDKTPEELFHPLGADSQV
- procedure_summary: ST_JUDE_LEISH: Cytotoxicity at 2uM final concentration against transgenic Leishmania Mexicana promastigotes LmGLUT1 that are glucose transport deficient and complemented with the human glucose transporter GLUT1. Activity is measured by DNA content using SYBR green in vitro
- Format: functional
Quick note: unit goes after the number.

>>> print(df.to_string())
                                   molecule  assay_value
0  CCCNCc1ccc(-c2ccc(CN(Cc3ccc4c(c3)OCO4)C(=O)[C@H]3CCCO3)cc2)nc1        13.6%
1  Clc1ccc(Nc2nc3ccc(Cl)cc3nc2Nc2ccc(Cl)cc2)cc1        7.56%
2  COc1cccc(C(C)(C)NC[C@@H](O)[C@H](Cc2ccccc2)NC(=O)c2cc(C3CCCC3)cc(N3CCCCS3(=O)=O)c2F)c1        0.16%
3          CCCCCCN1CCC(NCc2cccc3ccccc23)CC1        7.18%
4  N#CC(c1ccc(Br)cc1)c1ccc2c(C(F)(F)F)cc(C(F)(F)F)nc2n1 (centres undefined)        4.94%
5  COc1ccc(-n2nc(C)c3c2NC(=O)CC3c2ccccc2OCc2ccc(F)cc2)cc1 (centres undefined)        4.97%

Complete the entry with inhibition for "Cc1noc(C)c1-c1cccc(CNCc2cccc(-c3ccc(-c4nc5ccccc5[nH]4)cc3)c2)c1"
0.58%

Complete the entry with inhibition for "COc1cc(Cl)c(C)cc1-n1cc(C(=O)c2cc(Br)ccc2O)cc(C#N)c1=O"
-0.77%

Complete the entry with inhibition for "O=C(NCCCCCN1CCC(c2c[nH]c3ccccc23)CC1)c1ccc(Cl)c(Cl)c1"
2.42%
